The origin of these recorded values is paper PMC12067350.

- TARGET_OR_TEST_SYSTEM: human mGlu5 (Homo sapiens, UniProt P41594)
- Construct: expressed in transfected cells
- Sequence (P41594 21-1212): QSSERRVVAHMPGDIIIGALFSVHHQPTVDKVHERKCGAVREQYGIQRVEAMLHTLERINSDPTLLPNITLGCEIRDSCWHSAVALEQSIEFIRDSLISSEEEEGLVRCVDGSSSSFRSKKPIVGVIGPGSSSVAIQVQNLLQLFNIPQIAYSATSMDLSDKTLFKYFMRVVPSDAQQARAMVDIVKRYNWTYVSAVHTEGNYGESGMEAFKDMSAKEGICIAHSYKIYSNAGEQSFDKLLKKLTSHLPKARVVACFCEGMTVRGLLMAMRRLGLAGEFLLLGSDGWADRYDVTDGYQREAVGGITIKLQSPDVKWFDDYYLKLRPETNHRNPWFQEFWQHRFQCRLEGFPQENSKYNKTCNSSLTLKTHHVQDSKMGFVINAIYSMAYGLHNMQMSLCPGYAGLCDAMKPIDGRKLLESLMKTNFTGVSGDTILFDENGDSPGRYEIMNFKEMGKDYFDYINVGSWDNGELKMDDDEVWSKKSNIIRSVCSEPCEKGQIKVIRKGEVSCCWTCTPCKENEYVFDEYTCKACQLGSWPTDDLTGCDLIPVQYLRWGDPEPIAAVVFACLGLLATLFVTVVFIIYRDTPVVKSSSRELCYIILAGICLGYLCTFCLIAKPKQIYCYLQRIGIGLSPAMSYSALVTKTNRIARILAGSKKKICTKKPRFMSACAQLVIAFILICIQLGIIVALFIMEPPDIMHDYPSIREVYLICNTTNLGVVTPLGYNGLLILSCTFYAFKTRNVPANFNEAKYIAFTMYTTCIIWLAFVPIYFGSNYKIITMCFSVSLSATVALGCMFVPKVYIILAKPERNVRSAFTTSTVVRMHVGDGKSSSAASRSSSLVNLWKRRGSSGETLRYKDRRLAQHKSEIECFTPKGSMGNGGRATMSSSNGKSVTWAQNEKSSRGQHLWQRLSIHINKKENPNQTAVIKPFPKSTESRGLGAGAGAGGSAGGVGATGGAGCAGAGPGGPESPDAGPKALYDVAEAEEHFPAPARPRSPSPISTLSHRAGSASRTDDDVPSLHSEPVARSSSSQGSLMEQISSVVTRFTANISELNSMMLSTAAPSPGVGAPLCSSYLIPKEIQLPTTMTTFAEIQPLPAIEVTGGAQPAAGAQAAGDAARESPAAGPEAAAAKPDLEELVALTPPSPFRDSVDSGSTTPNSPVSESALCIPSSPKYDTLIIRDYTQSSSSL
- PROCEDURE_SUMMARY: Calcium mobilization assay in human mGlu5-HEK293A cells (NAM, EC80 glutamate)
- Assay type: cell-based
- MEASUREMENT_CONDITIONS: human mGlu5-HEK293A cells, EC80 fixed concentration of glutamate, n = 2 in triplicate; read-out: IC50
OBSERVATION_TYPE: IC50 (nM)
Give just the number in nM; leave the unit off.

{"COMPOUND": "N#Cc1csc(NC(=O)c2cc(O[C@@H]3CCOC3)c3sccc3n2)n1 [19aN]", "UNIT_DESCRIPTOR": "nM", "IC50": 559}
{"COMPOUND": "O=C(Nc1ccc(F)cn1)c1cc(O[C@@H]2CCOC2)cc(F)c1F [27cB]", "UNIT_DESCRIPTOR": "nM", "IC50": 1570}
{"COMPOUND": "Cc1cccc(NC(=O)c2cc(O[C@@H]3CCOC3)c3sccc3n2)n1 [19aD]", "UNIT_DESCRIPTOR": "nM", "IC50": 22}
{"COMPOUND": "Cc1csc(NC(=O)c2cc(O[C@@H]3CCOC3)c3sc(C)cc3n2)n1 [19cA]", "UNIT_DESCRIPTOR": "nM", "IC50": 357}
{"COMPOUND": "Cc1cccc(NC(=O)c2cc(O[C@@H]3CCOC3)c3sccc3n2)c1 [19aE]", "UNIT_DESCRIPTOR": "nM", "IC50": 845}

Let us move to another entry and its IC50.
Provide one value: measured IC50 of O=C(Nc1ccc(F)cn1)c1cc(O[C@@H]2CCOC2)c2sccc2n1 [19aB]
61
